Kindly supply the reported Population Healthy Nuclei (%) values for the records listed here.
System: Fibroblast
ASSAY: Multiplex assay against human fibroblast
Assay type: toxicity, cell-based
SETTINGS: 48 h, 1 µM, compound concentration 1 uM, replicate 1
Write it as a number; the unit % goes unstated.

# input Query the reported Population Healthy Nuclei (%) for Fibroblast; item: CC(/C=C1\SC(=S)N(CCCC(=O)Nc2ccc(C(=O)O)c(O)c2)C1=O)=C\c1ccccc1
# output 66

# input Query the reported Population Healthy Nuclei (%) for Fibroblast; item: CC(=O)Nc1cccc2c1c(Sc1ccc(Cl)cc1)c(C)n2CC(=O)O
# output 61

# input Query the reported Population Healthy Nuclei (%) for Fibroblast; item: CN(C)C(=O)Cn1cc(-c2ccc(-c3cncc4ccccc34)cc2)cn1
# output 65

# input Query the reported Population Healthy Nuclei (%) for Fibroblast; item: N#Cc1c(Oc2cccc(OS(=O)(=O)CCCC(F)(F)F)c2)cccc1C(F)(F)F
# output 66

# input Query the reported Population Healthy Nuclei (%) for Fibroblast; item: Cc1cnc(-c2cc(N3CCN(C(=O)CCS(C)(=O)=O)CC3)ncc2Cl)c(C)c1
# output 58

# input Query the reported Population Healthy Nuclei (%) for Fibroblast; item: COC[C@@H](c1ccc(C(F)(F)F)cc1)N1CCN(C2(C)CCN(C(=O)c3c(C)ncnc3C)CC2)C[C@@H]1C.O=C(O)/C=C\C(=O)O [VICRIVIROC MALEATE]
# output 56

# input Query the reported Population Healthy Nuclei (%) for Fibroblast; item: CCCCC1=NC2(CCCC2)C(=O)N1Cc1ccc(-c2ccccc2-c2nnn[nH]2)cc1
# output 69

# input Query the reported Population Healthy Nuclei (%) for Fibroblast; item: Cc1c(CC(=O)O)c2cccnc2n1Cc1ccc(S(C)(=O)=O)cc1C(F)(F)F
# output 67

# input Query the reported Population Healthy Nuclei (%) for Fibroblast; item: CC(C)COc1ccc(CNC(=O)N(Cc2ccc(F)cc2)C2CCN(C)CC2)cc1
# output 62

# input Query the reported Population Healthy Nuclei (%) for Fibroblast; item: CC(C)c1noc(N2CCC(COc3ccc(-c4ccc(S(C)(=O)=O)cc4)nc3)CC2)n1
# output 74

# input Query the reported Population Healthy Nuclei (%) for Fibroblast; item: C[C@H](N)COC(=O)[C@@H](CCCCN)NC(=O)Cc1c(-c2ccc3ccccc3c2)[nH]c2c1ccc1ccccc12
# output 65

# input Query the reported Population Healthy Nuclei (%) for Fibroblast; item: CCCCCC(O)/C=C/[C@H]1C(=O)CC(O)C1C/C=C\CCCC(=O)O (some centres not stated)
# output 66

# input Query the reported Population Healthy Nuclei (%) for Fibroblast; item: N#Cc1cc(F)cc(-c2nc(-c3ccc(F)cn3)no2)c1
# output 68

# input Query the reported Population Healthy Nuclei (%) for Fibroblast; item: CC(C)(C)c1cc(NC(=O)Nc2ccc(-c3cn4c(n3)sc3cc(OCCN5CCOCC5)ccc34)cc2)no1
# output 71

# input Query the reported Population Healthy Nuclei (%) for Fibroblast; item: Cc1sc2c(c1C)C(c1ccc(Cl)cc1)=N[C@@H](CC(=O)NCCCCCCCCNC(=O)COc1cccc3c1C(=O)N(C1CCC(=O)NC1=O)C3=O)c1nnc(C)n1-2 (some centres not stated)
# output 24

# input Query the reported Population Healthy Nuclei (%) for Fibroblast; item: Cc1cccc(NC(=O)CN2CCC(c3ccccn3)CC2)c1.Cl.Cl
# output 63

# input Query the reported Population Healthy Nuclei (%) for Fibroblast; item: Cl.NCCc1ccc(O)c(O)c1 [DOPAMINE HYDROCHLORIDE]
# output 66

====

Tested on: U2OS
ASSAY: Multiplex assay against U2OS
Format: toxicity, cell-based
SETTINGS: human, 12 h, 1 µM, compound concentration 1 uM, replicate 1
Rule: measured Population Membrane Permeable-Phenotype (%) below 4% gets 1; anything equal to or greater than 4% gets 0.

# input is_below(Population Membrane Permeable-Phenotype (%), 4%) for Cc1onc(-c2ccccc2Cl)c1C(=O)N(C)c1ccc(Cl)cc1 ?
# output 1

# input is_below(Population Membrane Permeable-Phenotype (%), 4%) for O=C(NCCN1CCC(n2c(=O)[nH]c3cc(Cl)ccc32)CC1)c1ccc(F)cc1 [HALOPEMIDE] ?
# output 0

# input is_below(Population Membrane Permeable-Phenotype (%), 4%) for CCCCC1=NC2(CCCC2)C(=O)N1Cc1ccc(-c2ccccc2-c2nnn[nH]2)cc1 ?
# output 0

# input is_below(Population Membrane Permeable-Phenotype (%), 4%) for CC[C@@H](C)Nc1nc(C)nc2c(-c3ccc(OC)nc3C)c(C)nn12 ?
# output 1

# input is_below(Population Membrane Permeable-Phenotype (%), 4%) for CC(C)c1noc(N2CCC(COc3ccc(-c4ccc(S(C)(=O)=O)cc4)nc3)CC2)n1 ?
# output 1

# input is_below(Population Membrane Permeable-Phenotype (%), 4%) for Br.CS(=O)(=O)Nc1c(O)ccc2c1CCCC2C1=NCCN1 (stereo not drawn) ?
# output 1

# input is_below(Population Membrane Permeable-Phenotype (%), 4%) for CN(C)C(=O)Cn1cc(-c2ccc(-c3cncc4ccccc34)cc2)cn1 ?
# output 0

# input is_below(Population Membrane Permeable-Phenotype (%), 4%) for NCCc1cn(S(=O)(=O)c2c(Cl)nc3sccn23)c2ccccc12.O=C(O)C(=O)O ?
# output 0

# input is_below(Population Membrane Permeable-Phenotype (%), 4%) for CC(C)COc1ccc(CNC(=O)N(Cc2ccc(F)cc2)C2CCN(C)CC2)cc1 ?
# output 0

# input is_below(Population Membrane Permeable-Phenotype (%), 4%) for N#Cc1cc(F)cc(-c2nc(-c3ccc(F)cn3)no2)c1 ?
# output 0

# input is_below(Population Membrane Permeable-Phenotype (%), 4%) for Cc1sc2c(c1C)C(c1ccc(Cl)cc1)=N[C@@H](CC(=O)NCCCCCCCCNC(=O)COc1cccc3c1C(=O)N(C1CCC(=O)NC1=O)C3=O)c1nnc(C)n1-2 (stereo partly drawn) ?
# output 0

# input is_below(Population Membrane Permeable-Phenotype (%), 4%) for Cc1cnc(-c2cc(N3CCN(C(=O)CCS(C)(=O)=O)CC3)ncc2Cl)c(C)c1 ?
# output 0

# input is_below(Population Membrane Permeable-Phenotype (%), 4%) for CN[C@@H](C)C(=O)N[C@H](C(=O)N1CCC[C@H]1C(=O)Nc1snnc1-c1ccccc1)C1CCCCC1 ?
# output 0

# input is_below(Population Membrane Permeable-Phenotype (%), 4%) for CN1CCN(c2cc(-c3ccccc3)nc(N)n2)CC1 ?
# output 0

# input is_below(Population Membrane Permeable-Phenotype (%), 4%) for CC(=O)Nc1cccc2c1c(Sc1ccc(Cl)cc1)c(C)n2CC(=O)O ?
# output 1

# input is_below(Population Membrane Permeable-Phenotype (%), 4%) for Cl.NCCc1ccc(O)c(O)c1 [DOPAMINE HYDROCHLORIDE] ?
# output 0

# input is_below(Population Membrane Permeable-Phenotype (%), 4%) for COC[C@@H](c1ccc(C(F)(F)F)cc1)N1CCN(C2(C)CCN(C(=O)c3c(C)ncnc3C)CC2)C[C@@H]1C.O=C(O)/C=C\C(=O)O [VICRIVIROC MALEATE] ?
# output 0

# input is_below(Population Membrane Permeable-Phenotype (%), 4%) for CCCCC(=O)N(Cc1ccc(-c2ccccc2-c2nnn[nH]2)cc1)[C@H](C(=O)O)C(C)C ?
# output 0

# input is_below(Population Membrane Permeable-Phenotype (%), 4%) for CC(C)(C)c1cc(NC(=O)Nc2ccc(-c3cn4c(n3)sc3cc(OCCN5CCOCC5)ccc34)cc2)no1 ?
# output 0

# input is_below(Population Membrane Permeable-Phenotype (%), 4%) for C[C@H](N)COC(=O)[C@@H](CCCCN)NC(=O)Cc1c(-c2ccc3ccccc3c2)[nH]c2c1ccc1ccccc12 ?
# output 0

# input is_below(Population Membrane Permeable-Phenotype (%), 4%) for Cc1noc(-c2ccc(-c3ccc(CC(=O)O)cc3)cc2)c1NC(=O)O[C@H](C)c1ccccc1Cl ?
# output 0

# input is_below(Population Membrane Permeable-Phenotype (%), 4%) for Cl.N=C(N)NC(=O)Cc1c(Cl)cccc1Cl [GUANFACINE HYDROCHLORIDE] ?
# output 0

====

Kindly supply the reported Population Normal (%) values for the records listed here.
Tested on: U2OS
ASSAY: Multiplex assay against U2OS
Format: toxicity, cell-based
SETTINGS: human, 48 h, 10 µM, compound concentration 10 uM, replicate 2

# input Data request, read-out Population Normal (%), for Cc1noc(-c2ccc(-c3ccc(CC(=O)O)cc3)cc2)c1NC(=O)O[C@H](C)c1ccccc1Cl
# output 95%

# input Data request, read-out Population Normal (%), for Cc1sc2c(c1C)C(c1ccc(Cl)cc1)=N[C@@H](CC(=O)NCCCCCCCCNC(=O)COc1cccc3c1C(=O)N(C1CCC(=O)NC1=O)C3=O)c1nnc(C)n1-2 (stereo partly drawn)
# output 97%

# input Data request, read-out Population Normal (%), for CCc1cc2cc(NS(=O)(=O)c3ccc(C#N)cc3)ccc2n(CC)c1=O
# output 97%

# input Data request, read-out Population Normal (%), for CC(=O)Nc1cccc2c1c(Sc1ccc(Cl)cc1)c(C)n2CC(=O)O [AZD1981]
# output 98%

# input Data request, read-out Population Normal (%), for CCCOc1ccc2[nH]cc(C3=CCNCC3)c2n1.Cl
# output 99%

# input Data request, read-out Population Normal (%), for CCCCCC(O)/C=C/[C@H]1C(=O)CC(O)C1C/C=C\CCCC(=O)O (stereo partly drawn)
# output 97%

# input Data request, read-out Population Normal (%), for Cc1onc(-c2ccccc2Cl)c1C(=O)N(C)c1ccc(Cl)cc1
# output 97%

# input Data request, read-out Population Normal (%), for Br.CS(=O)(=O)Nc1c(O)ccc2c1CCCC2C1=NCCN1 (stereo not drawn)
# output 100%

# input Data request, read-out Population Normal (%), for O=C1[C@H](Cc2ccc(O)cc2)N2C(=O)CCN(C(=O)NCc3ccccc3)[C@H]2CN1Cc1cccc2ccccc12
# output 95%

# input Data request, read-out Population Normal (%), for Cc1c(CC(=O)O)c2cccnc2n1Cc1ccc(S(C)(=O)=O)cc1C(F)(F)F [FEVIPIPRANT]
# output 96%

# input Data request, read-out Population Normal (%), for CCCCC(=O)N(Cc1ccc(-c2ccccc2-c2nnn[nH]2)cc1)[C@H](C(=O)O)C(C)C
# output 95%

# input Data request, read-out Population Normal (%), for O=C(NCCN1CCC(n2c(=O)[nH]c3cc(Cl)ccc32)CC1)c1ccc(F)cc1 [HALOPEMIDE]
# output 93%

# input Data request, read-out Population Normal (%), for CC(/C=C1\SC(=S)N(CCCC(=O)Nc2ccc(C(=O)O)c(O)c2)C1=O)=C\c1ccccc1
# output 98%

# input Data request, read-out Population Normal (%), for CCCCC1=NC2(CCCC2)C(=O)N1Cc1ccc(-c2ccccc2-c2nnn[nH]2)cc1 [IRBESARTAN]
# output 95%

# input Data request, read-out Population Normal (%), for CN[C@@H](C)C(=O)N[C@H](C(=O)N1CCC[C@H]1C(=O)Nc1snnc1-c1ccccc1)C1CCCCC1 [GDC-0152]
# output 85%

# input Data request, read-out Population Normal (%), for O=C(CCCc1ccccc1)Nc1nc2ccccc2c(=O)s1
# output 99%

# input Data request, read-out Population Normal (%), for CC(C)COc1ccc(CNC(=O)N(Cc2ccc(F)cc2)C2CCN(C)CC2)cc1 [PIMAVANSERIN]
# output 91%

# input Data request, read-out Population Normal (%), for Cl.NCCc1ccc(O)c(O)c1 [DOPAMINE HYDROCHLORIDE]
# output 98%
